Test system: MS2 coat protein
protocol-description: apparent KD of MS2 coat protein; designed switch direction (-1 OFF switch, 1 ON switch): -1; higher = weaker reporter binding
test-parameters: input ligand: none
measurement-label: apparent KD of MS2 coat protein (nM)
Numeric answer only, unit nM assumed.

Check out these entries, answers already filled in.
{"sequence-input": "ACACACACAGGAUAUCUUCCGCAUGACAUGAGGAUCACCCAUGUGUGCAUGCCCAAAAGUAGAGAAGGGUGUGUGU [eternacac ex5r4 #2] (Eterna round: R97, puzzle: Exclusion 5)", "value-unit": "nM", "endpoint-value": 29.2}
{"sequence-input": "GACUCGCACUGAGGAUAUCGAAACGAUACGUCGCGAGAAGGCAGAGCGAACAUGAGGAUCACCCAUGUGGGUUCGCCUGAUGUA [Geedinsoma] (Eterna round: R96, puzzle: Exclusion NG 1)", "value-unit": "nM", "endpoint-value": 16.7}
{"sequence-input": "AAAUCGGAGGAGGAUAUUGUACAGGAAACGGUGCGAGAAGGUUUCACAUGAGGAUCACCCAUGUCAAAUAGCGA [EX6 #57] (Eterna round: R97, puzzle: Exclusion 6)", "value-unit": "nM", "endpoint-value": 21.2}
{"sequence-input": "GUUAACGUAGGAUAUUAGUACAUGCACAUGAGGAUCACCCAUGUUUAGUGGGUCUAGGAAUAAGAAGGGCGAAGAA [EX5 #23] (Eterna round: R97, puzzle: Exclusion 5)", "value-unit": "nM", "endpoint-value": 309}

Please examine the following record next.
Given item GAUUAACAUGAGGAUCACCCAUGUGAGGAUAUUGACUUGCUCACUUUCCCAUUUGAGUCGAGAAGGCGCAUCUG [1986#22] (Eterna round: R97, puzzle: Exclusion 1) , the value recorded as its apparent KD of MS2 coat protein is 39

* * *

Property: apparent KD of MS2 coat protein; scope: individual sequences
System: MS2 coat protein
protocol-description: apparent KD of MS2 coat protein; designed switch direction (-1 OFF switch, 1 ON switch): 1; higher = weaker reporter binding
test-parameters: input ligand: FMN 200 uM
Kindly format the answer as number then unit.

Check out these entries, answers already filled in.
{"sequence-input": "ACCGAGAGGCUAGGAUAUUAGGGCAUUUGCAUAUGAGAAGGAGCCAGAUGGCCACAUGAGGAUCACCCAUGUCAACCCUGGACA [Eternabot solution 4] (Eterna round: R96, puzzle: Same State NG 1)", "apparent KD of MS2 coat protein": "22.5 nM"}
{"sequence-input": "AUAGUUUCCGAAGGAUAUGAUGAGGAUCACCCAUCAGAAGGUUGGCUAUUGGGCUGACAUGAGGAUCACCCAUGUUCUGGUGUU (Eterna round: R96, puzzle: Same State NG 1)", "apparent KD of MS2 coat protein": "39.1 nM"}
{"sequence-input": "CACGUCUAGGUAGGAUAUGAGGUGCCACAGGGAAAAGCCUAUGGACAUGAGGAUCACCCAUGUCCUCAGAAGGGCCAGACGUGA [Inzala] (Eterna round: R96, puzzle: Same State NG 2)", "apparent KD of MS2 coat protein": "25.9 nM"}
{"sequence-input": "GGAGCCGGCACCGAGGAUAUUCAUAUUAAAACAUGAGGAUCACCCAUGUAGAGCGAAAGCUCUUGGGAGAAGGCGGAUCGGCUCG [Xeonanis - 28] (Eterna round: R96, puzzle: Same State 2)", "apparent KD of MS2 coat protein": "34.6 nM"}

Given item GGAGCCGGCCUAGGAUAUUUCAUUAAAAUACAUGAGGAUCACCCAUGUAGGCCAGAAGGCCUUGGGAAGAAGGAGGUCGGCUCC [Loop Effect - U24,U29] (Eterna round: R96, puzzle: Same State NG 2) , the value recorded as its apparent KD of MS2 coat protein is 9.56 nM
